Entry source: ChEMBL document CHEMBL4689842

Can you tell me Population Healthy Nuclei (%) for the items I'm about to list?
- Tested on: Fibroblast
- PROTOCOL: Multiplex assay against human fibroblast
- Assay type: toxicity, cell-based
- MEASUREMENT_CONDITIONS: 24 h, 1 µM, compound concentration 1 uM, replicate 1
Answers are plain numbers, in %.

Some solved entries appear below for comparison.
1. CCNc1cc(N[C@H]2CC[C@H](O)CC2)nc(Nc2ccc3c(ccn3Cc3ccccc3)c2)n1; 44
2. COc1ccc(-c2ccc3c(N4CCOCC4)nc(N4C[C@@H](C)O[C@@H](C)C4)nc3n2)cc1CO; 54

Would you mind giving Population Healthy Nuclei (%) for every compound in the list below?
1. O=C1N/C(=N/c2ccccc2F)S/C1=C\c1ccc(C(=O)O)cc1
2. CCc1cccc(CC)c1NC(=O)c1nn(C)c2c1CCc1cnc(Nc3ccc(C(=O)NC4CCN(C)CC4)cc3OC(F)(F)F)nc1-2
3. Cl.Oc1ccc2c3c1O[C@H]1c4[nH]c5c(c4C[C@@]4(O)[C@@H](C2)N(CC2CC2)CC[C@]314)C[C@@]1(O)[C@H]2Cc3ccc(O)c4c3[C@@]1(CCN2CC1CC1)[C@H]5O4
4. Cc1cn(-c2cc(NC(=O)c3ccc(C)c(Nc4nccc(-c5cccnc5)n4)c3)cc(C(F)(F)F)c2)cn1

a:
[47, 40, 51, 29]

----------
- System: HEK-293T
- PROTOCOL: Multiplex assay against HEK293T
- Format: toxicity, cell-based
- MEASUREMENT_CONDITIONS: human, 48 h, 10 µM, compound concentration 10 uM, replicate 1
Can you tell me Population Mitotic Cells (%) for the items I'm about to list?
One number for each entry, in %.

1. CCn1c(=O)c(-c2ccc(-c3cncs3)cc2Cl)cc2cnc(Nc3ccc(N4CCN(C)CC4)cc3)nc21; 35
2. CN1C2CCC1CC(OC(c1ccc(F)cc1)c1ccc(F)cc1)C2.Cl (stereo not drawn); 21
3. Cc1cn(-c2cc(NC(=O)c3ccc(C)c(Nc4nccc(-c5cccnc5)n4)c3)cc(C(F)(F)F)c2)cn1 [NILOTINIB]; 15
4. CCOc1cc(C(=O)N2CCC(N3CCN(C)CC3)CC2)ccc1Nc1ncc2c(n1)N(C1CCCC1)c1ccccc1C(=O)N2C; 9
5. CCOc1cc2ncc(C#N)c(Nc3ccc(OCc4ccccn4)c(Cl)c3)c2cc1NC(=O)/C=C/CN(C)C [NERATINIB]; 47
6. CN(C)C(=O)C(CCN1CCC(O)(c2ccc(Cl)cc2)CC1)(c1ccccc1)c1ccccc1.Cl [LOPERAMIDE HYDROCHLORIDE]; 14

Would you mind giving Population Mitotic Cells (%) for every compound in the list below?
1. CCCS(=O)(=O)c1nc(NC2CC2)cc(-c2ccc3c(ccn3C3CC(C)(C)NC(C)(C)C3)c2)n1
2. CCOC(=O)c1c(C)[nH]c2ccc3c(c12)CN1CCc2cc(OC)ccc2C1O3 (stereo not drawn)

a:
1: 30; 2: 19

----------
Can you tell me Population Membrane Permeable-Phenotype (%) for the items I'm about to list?
- Tested on: U2OS
- PROTOCOL: Multiplex assay against U2OS
- Assay type: toxicity, cell-based
- MEASUREMENT_CONDITIONS: human, 12 h, 1 µM, compound concentration 1 uM, replicate 2
One number for each entry, in %.

Some solved entries appear below for comparison.
1. COc1cc(N2CCN(C)CC2)ccc1Nc1ncc2c(n1)N(C)c1ccccc1C(=O)N2C; 9
2. COc1ccc(S(=O)(=O)N(CCO)c2ccccc2CN(C)C/C=C/c2ccc(Cl)cc2)cc1.O=P(O)(O)O; 85
3. Cc1ccc(C(=O)Nc2cccc(C(F)(F)F)c2)cc1Nc1nc(-c2cccnc2)nc2c1cnn2C; 6

Would you mind giving Population Membrane Permeable-Phenotype (%) for every compound in the list below?
1. CN(C)C(=O)C(CCN1CCC(O)(c2ccc(Cl)cc2)CC1)(c1ccccc1)c1ccccc1.Cl [LOPERAMIDE HYDROCHLORIDE]
2. Cc1cn(-c2cc(NC(=O)c3ccc(C)c(Nc4nccc(-c5cccnc5)n4)c3)cc(C(F)(F)F)c2)cn1 [NILOTINIB]

a:
1: 11; 2: 1

----------
- System: HEK-293T
- PROTOCOL: Multiplex assay against HEK293T
- Assay type: toxicity, cell-based
- MEASUREMENT_CONDITIONS: human, 12 h, 10 µM, compound concentration 10 uM, replicate 1
PARAMETER_MEASURED: Population Healthy Nuclei (%)
One number for each entry, in %.

Some solved entries appear below for comparison.
1. NC(=O)c1cccc(-c2cc(Nc3ccc(OC(F)(F)F)cc3)ncn2)c1; 54
2. COc1ccc(S(=O)(=O)N(CCO)c2ccccc2CN(C)C/C=C/c2ccc(Cl)cc2)cc1.O=P(O)(O)O; 67
3. Cc1ccc(C(=O)Nc2cccc(C(F)(F)F)c2)cc1Nc1nc(-c2cccnc2)nc2c1cnn2C; 7

Read the next record carefully.
// returns Population Healthy Nuclei (%) for CN(C)C(=O)C(CCN1CCC(O)(c2ccc(Cl)cc2)CC1)(c1ccccc1)c1ccccc1.Cl [LOPERAMIDE HYDROCHLORIDE] with HEK-293T; value = 7

----------
- Test system: Fibroblast
- PROTOCOL: Multiplex assay against human fibroblast
- Format: toxicity, cell-based
- MEASUREMENT_CONDITIONS: 12 h, 1 µM, compound concentration 1 uM, replicate 1
PARAMETER_MEASURED: Population Normal (%)
Numbers only, in %.

Some solved entries appear below for comparison.
1. CNC(=O)c1ccc(Nc2nc(OC3CCCC3)c3c(-c4ccc5nc(C)oc5c4)c[nH]c3n2)c(OC)c1; 89
2. CCn1cc(-c2ccnc3[nH]c(-c4cccc(CN(C)C)c4)cc23)c(-c2ccc(NC(=O)N(C)C)cc2)n1; 86
3. O=C1NC(=O)C(c2cnc3ccccn23)=C1c1cn2c3c(cc(F)cc13)CN(C(=O)N1CCCCC1)CC2; 88
4. Cn1nc(C(F)(F)F)cc1-c1cnc(N2CCc3cc(S(=O)(=O)Nc4c(F)cc(Cl)cc4F)cc(N4CCCC4=O)c32)nc1; 86
5. Cl.O=c1c2cccn2c2ccccc2n1CCCN1CCC(c2ccc(Cl)cc2)CC1; 87

Would you mind giving Population Normal (%) for every compound in the list below?
1. CN1CCC(=C2c3ccccc3CC(=O)c3sccc32)CC1.O=C(O)/C=C/C(=O)O [KETOTIFEN FUMARATE]
2. COC(=N)c1nc2ccc3ncnc(Nc4ccc(OC)cc4F)c3c2s1
3. Cc1ccc(C(=O)Nc2cccc(C(F)(F)F)c2)cc1Nc1nc(-c2cccnc2)nc2c1cnn2C

a:
1: 87; 2: 82; 3: 89

Would you mind giving Population Normal (%) for every compound in the list below?
1. COc1cc2ncnc(Nc3ccc(F)c(Cl)c3)c2cc1NC(=O)/C=C/CN1CCCCC1 [DACOMITINIB ANHYDROUS]
2. COc1cccc2cc(-c3nc([C@H]4CC[C@H](C(=O)O)CC4)n4ncnc(N)c34)[nH]c12
3. CCCn1c(=O)c2[nH]c(-c3cnn(Cc4cccc(C(F)(F)F)c4)c3)nc2n(CC)c1=O
4. O=C(Cc1ccc(-c2ccc(OCCN3CCOCC3)cc2)cn1)NCc1ccccc1
5. O=C(Nc1ccc(Cl)cc1)Nc1cccc(-c2cccc(N3CCCC3)n2)c1

a:
1. 82
2. 71
3. 88
4. 83
5. 81

Would you mind giving Population Normal (%) for every compound in the list below?
1. CCOc1cc2ncc(C#N)c(Nc3ccc(OCc4ccccn4)c(Cl)c3)c2cc1NC(=O)/C=C/CN(C)C
2. O=C(Nc1ccc(-c2ccnc(Nc3ccc(N4CCOCC4)cc3)n2)cc1)[C@@H]1CCCN1
3. CN[C@@H]1C[C@H]2O[C@@](C)([C@@H]1OC)n1c3ccccc3c3c4c(c5c6ccccc6n2c5c31)C(=O)NC4

a:
1. 85
2. 87
3. 68

----------
Can you tell me Population Fragmented Nuclei (%) for the items I'm about to list?
- Tested on: HEK-293T
- PROTOCOL: Multiplex assay against HEK293T
- Assay type: toxicity, cell-based
- MEASUREMENT_CONDITIONS: human, 12 h, 10 µM, compound concentration 10 uM, replicate 1
One number for each entry, in %.

1. O=C(Nc1ccc(-c2ccnc(Nc3ccc(N4CCOCC4)cc3)n2)cc1)[C@@H]1CCCN1; 16

Would you mind giving Population Fragmented Nuclei (%) for every compound in the list below?
1. NC(=O)c1cccc(-c2cc(Nc3ccc(OC(F)(F)F)cc3)ncn2)c1
2. CN1C2CCC1CC(OC(c1ccc(F)cc1)c1ccc(F)cc1)C2.Cl (stereo unspecified)
3. Cl.Oc1ccc2c3c1O[C@H]1c4[nH]c5c(c4C[C@@]4(O)[C@@H](C2)N(CC2CC2)CC[C@]314)C[C@@]1(O)[C@H]2Cc3ccc(O)c4c3[C@@]1(CCN2CC1CC1)[C@H]5O4
4. O=C(Nc1cccnn1)N1CCC(=Cc2cccc(Oc3ccc(C(F)(F)F)cn3)c2)CC1

a:
15
9
7
13

Would you mind giving Population Fragmented Nuclei (%) for every compound in the list below?
1. CNc1cc(Oc2cc(C(=O)Nc3cc(N4CCN(C)CC4)cc(C(F)(F)F)c3)ccc2C)ncn1
2. CCCS(=O)(=O)c1nc(NC2CC2)cc(-c2ccc3c(ccn3C3CC(C)(C)NC(C)(C)C3)c2)n1

a:
17
63

Would you mind giving Population Fragmented Nuclei (%) for every compound in the list below?
1. Cn1nc(C(F)(F)F)cc1-c1cnc(N2CCc3cc(S(=O)(=O)Nc4c(F)cc(Cl)cc4F)cc(N4CCCC4=O)c32)nc1 [TP-020]
2. Cc1cn(-c2cc(NC(=O)c3ccc(C)c(Nc4nccc(-c5cccnc5)n4)c3)cc(C(F)(F)F)c2)cn1 [NILOTINIB]
3. CCCn1c(=O)c2[nH]c(-c3cnn(Cc4cccc(C(F)(F)F)c4)c3)nc2n(CC)c1=O [GS 6201]
4. CCN1CCN(c2ccc(Nc3cc(N(C)C(=O)Nc4c(Cl)c(OC)cc(OC)c4Cl)ncn3)cc2)CC1 [INFIGRATINIB]
5. CCc1cccc(CC)c1NC(=O)c1nn(C)c2c1CCc1cnc(Nc3ccc(N4CCN(C)CC4)cc3OC)nc1-2

a:
14
54
28
19
11

Would you mind giving Population Fragmented Nuclei (%) for every compound in the list below?
1. O=C(Cc1ccc(-c2ccc(OCCN3CCOCC3)cc2)cn1)NCc1ccccc1 [TIRBANIBULIN]
2. COC(=N)c1nc2ccc3ncnc(Nc4ccc(OC)cc4F)c3c2s1
3. Cc1ccc(C(=O)Nc2cccc(C(F)(F)F)c2)cc1Nc1nc(-c2cccnc2)nc2c1cnn2C
4. CCN1CCN(Cc2ccc(Nc3ncc(F)c(-c4cc(F)c5nc(C)n(C(C)C)c5c4)n3)nc2)CC1.CS(=O)(=O)O

a:
1: 20; 2: 10; 3: 16; 4: 14
